B1: SPATS1 (parent)
chain: GRKKYDIDPRNGIPKLTPGDNPYM

Variants of: B1
experimental.protocol: protein stability index of a GFP-peptide fusion (GPS, HEK-293T) (PSI 1-6); higher = more stable;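 also: lentivirally expressed fusions sorted by FACS into six bins by GFP to DsRed ratio, PSI derived from sequencing read proportions per bin multiplied by bin number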
condition: c terminus: a fixed tail appended
Could you label it yes if measured protein stability index is 4 or higher, and no otherwise?

    mutation_code  assigned_label
 0           T17R              no
 1           D20Q              no
 2           N11Q              no
 3            K4I              no
 4           G19M              no
 5            G1N              no
 6            K3E              no
 7           R10V              no
 8            R2K              no
 9           I13D             yes
10           T17K              no
11           P14K              no
12            Y5L             yes
13           P14H              no
14           P14F              no
15           N11M              no
16           R10E             yes
17           M24I              no
18           Y23V             yes
19            G1C              no
20            R2D             yes
21            D8E              no
22            I7P              no
23            D8R              no
24           R10L              no
25           P18S              no
26            K4D              no
27           P14I              no
28           M24A             yes
29            D8A              no
30           N11A              no
31            Y5D             yes
32           D20W              no
33            K4S              no
34           P14S              no
35            K4Y              no
36            P9T              no
37            P9G              no
38           P14D              no
39            K4C              no
40           G19D              no
41           T17D              no
42            K4Q              no
43            K4L              no
44            P9V              no
45           Y23L             yes
46           G12N              no
47            D6V              no
48            I7N              no
49           I13A             yes
50           G19Y              no
51            G1K              no
52           N21T              no
53            D6M              no
54           G19H              no
55           P22M              no
56            K3M              no
57           T17L              no
58           D20L              no
59           N21I              no
60           I13P              no
61            K4P              no
62           P22G              no
63           P18L              no
64           K15R              no
65           I13E             yes
66           G19P              no
67           G19R              no
68           I13T              no
69            G1L              no
70            G1Q              no
71            P9E             yes
72           G19T              no
73           N21H              no
74           L16C              no
75            D8F              no
76            G1M              no
77           T17E             yes
78           Y23P             yes
